// provenance: PubChem BioAssay AID624330

Entries and their inhibition values follow.
testSystem: Rac GTPase-activating protein 1 (Homo sapiens)
method: blockers of MgcRacGAP-driven Rac1 GTP hydrolysis – biochemical, ADP Hunter fluorescence, primary and confirmatory, confirmation (AID 624330);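 further: fluorescence reports GDP produced by GAP-driven GTP hydrolysis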
statedConditions: MgcRacGAP-stimulated Rac1 GTP hydrolysis, at 30 µM, stronger effect = higher value, GST-tagged Rac1 F28L mutant substrate
Among all 340,000 compounds or so, about 2,100 (0.62%) were called active. These entries were drawn from the full list. Measured potencies and affinities stand elsewhere.
State the answer as a number, implicitly in %.

Exercise: Please tell me: inhibition of "COc1ccc(/C=N/NC(=O)CCn2nc(C)cc2C)cc1O" , system Rac GTPase-activating protein 1 (Homo sapiens)?
Key: 26.5

Exercise: Report inhibition for "O=C(c1ccc(F)cc1F)N1CCN(S(=O)(=O)c2ccc3c(c2)OCCO3)CC1" tested on Rac GTPase-activating protein 1 (Homo sapiens).
Key: 7.11

Exercise: Lab note: need inhibition for "CSc1ccc(Cn2nnc(C(=O)Nc3ccc(C)c(C)c3)c2N)cc1" on Rac GTPase-activating protein 1 (Homo sapiens), anyone have it?
Key: 8.18

Exercise: // fetch Rac GTPase-activating protein 1 (Homo sapiens) inhibition for "C=CCNC(=S)N/N=C(\C)c1ccc(-n2ccnc2)cc1"
Key: -11.5

Exercise: What inhibition appears in the records for this compound with Rac GTPase-activating protein 1 (Homo sapiens)? "O=C(Cn1cc(C(F)(F)F)ccc1=O)N/N=C/c1ccc(Cl)cc1"
Key: 11.1

Exercise: Quick check: inhibition on Rac GTPase-activating protein 1 (Homo sapiens), item "O=C(NN1C(=O)/C(=C/c2cccc(O)c2)SC1=S)c1ccccc1O" ?
Key: 5.04

Exercise: Lab request: please report inhibition under test system Rac GTPase-activating protein 1 (Homo sapiens) for "O=C(CCn1cnc(-c2ccccc2)c1-c1ccccc1)N/N=C/c1ccc(O)cc1"
Key: 27.5

Exercise: GET /values?readout=inhibition&system=Rac GTPase-activating protein 1 (Homo sapiens)&item= "COc1ccc(/C=N/NC(=O)CCn2nc(C)cc2C)cc1"
Key: -2.7

====

Property: inhibition; scope: individual compounds
testSystem: Rac GTPase-activating protein 1 (Homo sapiens)
method: blockers of MgcRacGAP-driven Rac1 GTP hydrolysis – biochemical, ADP Hunter fluorescence, primary and confirmatory, confirmation (AID 624330);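 further: fluorescence reports GDP produced by GAP-driven GTP hydrolysis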
statedConditions: MgcRacGAP-stimulated Rac1 GTP hydrolysis, at 30 µM, stronger effect = higher value, GST-tagged Rac1 F28L mutant substrate
Among all 340,000 compounds or so, about 2,100 (0.62%) were called active. These entries were drawn from the full list. Results with a measured potency or affinity are listed apart.
Answer format: numeric, % implied, no suffix.

compound: O=c1c2c([N+](=O)[O-])cc([N+](=O)[O-])cc2sn1Cc1ccccc1
inhibition [%]: 31

Let's switch to this compound now.
Exercise: GET /values?readout=inhibition&system=Rac GTPase-activating protein 1 (Homo sapiens)&item= O=C1CC(c2ccc(F)cc2)CC(O)=C1C=NCCN1CCNCC1 (stereo unspecified)
Key: 10.7

====

testSystem: Rac GTPase-activating protein 1 (Homo sapiens) (UniProt Q9H0H5)
Sequence (Q9H0H5 whole entry, looked up): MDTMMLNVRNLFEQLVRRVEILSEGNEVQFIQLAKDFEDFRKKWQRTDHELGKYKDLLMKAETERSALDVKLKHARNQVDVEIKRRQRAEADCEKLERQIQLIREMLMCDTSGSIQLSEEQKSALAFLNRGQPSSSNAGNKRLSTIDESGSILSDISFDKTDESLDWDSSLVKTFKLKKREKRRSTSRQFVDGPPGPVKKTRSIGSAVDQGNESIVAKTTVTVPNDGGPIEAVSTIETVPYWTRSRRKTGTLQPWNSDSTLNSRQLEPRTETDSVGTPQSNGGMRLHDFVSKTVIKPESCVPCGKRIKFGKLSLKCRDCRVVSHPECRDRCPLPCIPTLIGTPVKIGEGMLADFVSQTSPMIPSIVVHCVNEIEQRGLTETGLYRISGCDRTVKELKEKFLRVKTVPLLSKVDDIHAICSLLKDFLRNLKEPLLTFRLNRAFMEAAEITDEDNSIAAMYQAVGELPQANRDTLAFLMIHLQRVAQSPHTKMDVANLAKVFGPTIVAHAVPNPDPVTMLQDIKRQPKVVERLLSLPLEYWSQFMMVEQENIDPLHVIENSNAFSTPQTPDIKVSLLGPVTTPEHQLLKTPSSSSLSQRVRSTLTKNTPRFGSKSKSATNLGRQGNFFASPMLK
method: blockers of MgcRacGAP-driven Rac1 GTP hydrolysis – biochemical, ADP Hunter fluorescence, primary and confirmatory, confirmation (AID 624330);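 further: fluorescence reports GDP produced by GAP-driven GTP hydrolysis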
statedConditions: MgcRacGAP-stimulated Rac1 GTP hydrolysis, at 30 µM, stronger effect = higher value, GST-tagged Rac1 F28L mutant substrate
Out of some 340,000 compounds screened, about 2,100 (0.62%) were called active. Only a sample is shown. Entries with a potency or affinity are not part of this list.
assayEndpoint: inhibition

Solved entries (count: 2):
compound: O=C(c1cccc(F)c1)N1CCN(c2ccc([N+](=O)[O-])c(N3CCOCC3)c2)CC1
inhibition: 9.81% (inactive)
//
compound: Cc1cc(C)cc(NC(=O)c2cccc(NC(=O)c3ccco3)c2)c1
inhibition: -0.13% (inactive)

Exercise: What inhibition value was documented for this compound, "CCOc1ccccc1OCCOCCN1CCN(Cc2ccccc2)CC1" ?
Key: 26.4% (inactive)

Exercise: # inhibition lookup, item "Cc1cc(OCCN2CCC(Cc3ccccc3)CC2)ccc1[N+](=O)[O-]"
Key: 22% (inactive)

Exercise: For Cc1cc(C2(O)C(=O)Nc3ccccc32)ccc1F (configuration not stated) , what is its reported inhibition?
Key: -6.52% (inactive)
